# target-of-assay: CDK7/Cyclin H/MAT1 complex (Homo sapiens, UniProt P50613)
# Sequence (P50613 whole entry): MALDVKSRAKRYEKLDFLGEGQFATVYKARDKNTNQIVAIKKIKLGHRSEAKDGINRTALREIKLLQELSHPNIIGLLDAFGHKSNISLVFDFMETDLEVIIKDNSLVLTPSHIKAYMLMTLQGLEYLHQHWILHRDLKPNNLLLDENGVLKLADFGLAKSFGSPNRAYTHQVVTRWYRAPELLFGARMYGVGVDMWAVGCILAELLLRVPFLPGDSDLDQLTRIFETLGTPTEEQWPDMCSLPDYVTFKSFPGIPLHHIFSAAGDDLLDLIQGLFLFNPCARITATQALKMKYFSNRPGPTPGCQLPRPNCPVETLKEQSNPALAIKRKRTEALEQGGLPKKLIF
# Sequence (P51946 whole entry partner): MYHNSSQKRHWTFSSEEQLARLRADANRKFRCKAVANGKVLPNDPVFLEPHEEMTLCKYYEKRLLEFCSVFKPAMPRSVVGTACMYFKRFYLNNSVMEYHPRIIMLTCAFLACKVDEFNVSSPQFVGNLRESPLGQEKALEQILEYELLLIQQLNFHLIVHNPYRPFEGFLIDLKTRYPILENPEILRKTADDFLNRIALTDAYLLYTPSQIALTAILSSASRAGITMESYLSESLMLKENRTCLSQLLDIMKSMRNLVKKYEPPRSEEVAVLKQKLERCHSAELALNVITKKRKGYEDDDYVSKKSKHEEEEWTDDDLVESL
# Sequence (P51948 whole entry partner): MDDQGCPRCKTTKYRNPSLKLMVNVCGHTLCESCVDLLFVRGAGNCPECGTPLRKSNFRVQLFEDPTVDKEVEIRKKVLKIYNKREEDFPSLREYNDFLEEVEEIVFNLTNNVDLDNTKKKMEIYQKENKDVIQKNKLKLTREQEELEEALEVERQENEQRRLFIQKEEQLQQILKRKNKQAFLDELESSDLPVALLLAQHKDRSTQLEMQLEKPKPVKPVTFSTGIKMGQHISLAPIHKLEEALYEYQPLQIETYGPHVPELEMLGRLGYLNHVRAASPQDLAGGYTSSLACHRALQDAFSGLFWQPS
# assay-method-text: CDK7 kinase inhibition assay (Caliper/LabChip EZ Reader)
# test-context: CDK7/Cyclin H/MAT1 6 nM, ATP 2 mM, 35 min at 27° C.
Entries and their IC50 values follow.

// below: answered compounds
Cc1c(-c2ccc3c(-c4nc(NC5CCCNC5)ncc4C(F)(F)F)c[nH]c3c2)cnn1C (stereo not drawn) = < 20 nM
OCc1cccc(-c2ccc3c(-c4nc(NC5CCCNC5)ncc4C(F)(F)F)c[nH]c3c2)n1 (stereo not drawn) = < 20 nM
CC1NCCCC1Nc1ncc(Cl)c(-c2c[nH]c3ccccc23)n1 (stereo not drawn) = 20 to 200 nM
FC(F)(F)Cc1cnc(N[C@H]2CCCNC2)nc1-c1c[nH]c2ccccc12 = 200 to 5000 nM
Cn1ccc(-c2ccc3c(-c4nc(NC5CCCNC5)ncc4C(F)(F)F)c[nH]c3c2)n1 (stereo not drawn) = < 20 nM

Prompt: Need IC50 of OC1CCNCC1Nc1ncc(Cl)c(-c2c[nH]c3ccccc23)n1 (stereo not drawn) , thanks.
Response: 20 to 200 nM

Prompt: Need IC50 of FC(F)(F)c1cnc(NC2CCCNC2)nc1-c1c[nH]c2cc(-c3ccc4[nH]cnc4c3)ccc12 (stereo not drawn) , thanks.
Response: < 20 nM

====

# target-of-assay: CDK2/Cyclin E1 complex (Homo sapiens)
# assay-method-text: CDK2 kinase inhibition assay (Caliper/LabChip EZ Reader)
# test-context: CDK2/Cyclin E1 0.5 nM, ATP 2 mM, 35 min at 27° C.
Entries and their IC50 values follow.

// below: answered molecules
CC1(C)CNC[C@@H](Nc2ncc(C(F)(F)F)c(-c3c[nH]c4cc(S(C)(=O)=O)ccc34)n2)C1 [Compound 376] = 0.2 to 5 µM
CC(C)(O)Cn1cc(-c2ccc3c(-c4nc(N[C@H]5CCCNC5)ncc4C(F)(F)F)c[nH]c3c2)cn1 [Compound 214] = 0.2 to 5 µM
CC1(O)CCN(C(=O)c2ccc3c(-c4nc(N[C@H]5CCCNC5)ncc4C(F)(F)F)c[nH]c3c2)CC1 [Compound 282] = 0.2 to 5 µM
FC(F)(F)c1cnc(N[C@H]2CCCNC2)nc1-c1c[nH]c2cc(-c3cccc(Oc4ccccc4)c3)ccc12 [Compound 341] = ≥ 5 µM
CNC(=O)C1CNCC(Nc2ncc(C(F)(F)F)c(-c3c[nH]c4ccccc34)n2)C1 (centres unmarked) [Compound 253] = 0.02 to 0.2 µM

Prompt: Need IC50 of CS(=O)(=O)Cc1ccc2c(-c3nc(NC4CCCNC4)ncc3C(F)(F)F)c[nH]c2c1 (centres unmarked) [Compound 219] , thanks.
Response: 0.2 to 5 µM

Prompt: Need IC50 of FC(F)(F)c1cnc(NC2CCCNC2)nc1-c1c[nH]c2cc(-c3cn[nH]c3)ccc12 (centres unmarked) [Compound 188] , thanks.
Response: 0.2 to 5 µM

Prompt: Need IC50 of N#Cc1ccc2c(-c3nc(N[C@H]4CCCNC4)ncc3SC(F)F)c[nH]c2c1 [Compound 361] , thanks.
Response: ≥ 5 µM

Prompt: Need IC50 of O=C1CCc2ccc(-c3ccc4c(-c5nc(NC6CCCNC6)ncc5C(F)(F)F)c[nH]c4c3)cc2N1 (centres unmarked) [Compound 334] , thanks.
Response: 0.2 to 5 µM

Prompt: Need IC50 of CC(O)c1cnc(NC2CCCNC2)nc1-c1c[nH]c2ccccc12 (centres unmarked) [Compound 239] , thanks.
Response: ≥ 5 µM

Prompt: Need IC50 of FC(F)(F)c1cnc(NC2CCCNC2)nc1-c1c[nH]c2c(-c3cn[nH]c3)cccc12 (centres unmarked) [Compound 170] , thanks.
Response: 0.2 to 5 µM

Prompt: Need IC50 of FC(F)(F)c1cnc(NC2CCCNC2)nc1-c1c[nH]c2cc(-c3cc[nH]n3)ccc12 (centres unmarked) [Compound 291] , thanks.
Response: 0.2 to 5 µM

Prompt: Need IC50 of CN1CCCC(Nc2ncc(Cl)c(-c3c[nH]c4ccccc34)n2)C1 (centres unmarked) [Compound 136] , thanks.
Response: 0.2 to 5 µM

Prompt: Need IC50 of CCS(=O)(=O)c1cccc2c(-c3nc(N[C@H]4CCCNC4)ncc3C(F)(F)F)c[nH]c12 [Compound 286] , thanks.
Response: 0.2 to 5 µM

====

# target-of-assay: CDK9/Cyclin T1 complex (Homo sapiens)
# Sequence (P50750 whole entry): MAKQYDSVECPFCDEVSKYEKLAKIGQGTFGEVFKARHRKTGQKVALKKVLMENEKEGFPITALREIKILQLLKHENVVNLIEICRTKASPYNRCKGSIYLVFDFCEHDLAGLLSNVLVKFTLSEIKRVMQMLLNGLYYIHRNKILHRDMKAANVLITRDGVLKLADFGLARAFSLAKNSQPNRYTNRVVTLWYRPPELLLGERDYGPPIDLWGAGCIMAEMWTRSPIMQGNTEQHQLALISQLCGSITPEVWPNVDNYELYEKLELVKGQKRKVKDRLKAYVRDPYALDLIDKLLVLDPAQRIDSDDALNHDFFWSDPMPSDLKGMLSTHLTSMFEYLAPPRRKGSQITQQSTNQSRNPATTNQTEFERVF
# Sequence (O60563 whole entry partner): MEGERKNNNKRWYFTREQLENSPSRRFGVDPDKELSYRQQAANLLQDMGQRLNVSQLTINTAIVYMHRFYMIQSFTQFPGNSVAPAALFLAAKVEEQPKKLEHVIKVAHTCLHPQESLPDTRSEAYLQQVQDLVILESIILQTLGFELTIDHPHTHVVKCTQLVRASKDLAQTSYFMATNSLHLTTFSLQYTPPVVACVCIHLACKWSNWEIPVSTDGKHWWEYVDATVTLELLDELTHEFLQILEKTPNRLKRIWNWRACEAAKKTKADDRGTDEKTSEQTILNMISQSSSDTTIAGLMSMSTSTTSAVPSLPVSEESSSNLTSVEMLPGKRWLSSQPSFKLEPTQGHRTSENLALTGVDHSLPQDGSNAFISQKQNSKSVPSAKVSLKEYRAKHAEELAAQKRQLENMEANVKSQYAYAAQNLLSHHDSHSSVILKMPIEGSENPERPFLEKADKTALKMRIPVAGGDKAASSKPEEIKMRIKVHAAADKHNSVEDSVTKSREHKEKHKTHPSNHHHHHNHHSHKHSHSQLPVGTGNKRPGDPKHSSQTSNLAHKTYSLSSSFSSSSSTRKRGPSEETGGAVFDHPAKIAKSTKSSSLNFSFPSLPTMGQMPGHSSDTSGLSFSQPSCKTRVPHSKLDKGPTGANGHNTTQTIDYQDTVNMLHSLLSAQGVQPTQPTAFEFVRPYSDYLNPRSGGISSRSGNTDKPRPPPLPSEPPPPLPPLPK
# assay-method-text: CDK9 kinase inhibition assay (Caliper/LabChip EZ Reader)
# test-context: CDK9/Cyclin T1 8 nM, ATP 2 mM, 15 min at 27° C.
Entries and their IC50 values follow.

// below: answered molecules
CC(C)C1CCC(Nc2ncc(C(F)(F)F)c(-c3c[nH]c4ccccc34)n2)CN1 (stereo not shown) = ≥ 5 µM
CNS(=O)(=O)c1ccc2c(-c3nc(N[C@H]4CCCNC4)ncc3C(F)(F)F)c[nH]c2c1 = 0.2 to 5 µM
CC1CCNCC1Nc1ncc(Cl)c(-c2c[nH]c3ccccc23)n1 (stereo not shown) [Compound 126] = 0.2 to 5 µM

Prompt: Need IC50 of CNC(=O)C1CNCC(Nc2ncc(C(F)(F)F)c(-c3c[nH]c4ccccc34)n2)C1 (stereo not shown) [Compound 252] , thanks.
Response: ≥ 5 µM

Prompt: Need IC50 of FC(F)(F)c1cnc(NC2CCCNC2)nc1-c1c[nH]c2ccc(-c3cn[nH]c3)cc12 (stereo not shown) , thanks.
Response: ≥ 5 µM

Prompt: Need IC50 of FC(F)n1ccc(-c2ccc3c(-c4nc(NC5CCCNC5)ncc4C(F)(F)F)c[nH]c3c2)n1 (stereo not shown) , thanks.
Response: 0.2 to 5 µM

Prompt: Need IC50 of Fc1cccc2c(-c3nc(NC4CCCNC4)ncc3Cl)c[nH]c12 (stereo not shown) , thanks.
Response: 0.2 to 5 µM

Prompt: Need IC50 of CS(=O)(=O)c1ccc2c(-c3nc(NC4CCCN(C5CC5)C4)ncc3C(F)(F)F)c[nH]c2c1 (stereo not shown) , thanks.
Response: ≥ 5 µM

Prompt: Need IC50 of CS(=O)(=O)c1cccc2c(-c3nc(NC4CCCNC4)ncc3C(F)(F)F)c[nH]c12 (stereo not shown) , thanks.
Response: 0.2 to 5 µM

Prompt: Need IC50 of CCc1cnc(N[C@H]2CCCNC2)nc1-c1c[nH]c2c(S(=O)(=O)O)cccc12 , thanks.
Response: ≥ 5 µM

Prompt: Need IC50 of FC(F)(F)c1cnc(NC2CNCC(c3nnc4ccccn34)C2)nc1-c1c[nH]c2ccccc12 (stereo not shown) [Compound 266] , thanks.
Response: 0.2 to 5 µM

Prompt: Need IC50 of CC1(O)CCN(S(=O)(=O)c2ccc3c(-c4nc(NC5CCCNC5)ncc4C(F)(F)F)c[nH]c3c2)C1 (stereo not shown) , thanks.
Response: 0.2 to 5 µM

Prompt: Need IC50 of CN1CCN(c2cccc3c(-c4nc(NC5CCCNC5)ncc4C(F)(F)F)c[nH]c23)C1=O (stereo not shown) , thanks.
Response: 0.2 to 5 µM

Prompt: Need IC50 of CN(C)S(=O)(=O)c1ccc2c(-c3nc(NC4CCCNC4)ncc3C(F)(F)F)c[nH]c2c1 (stereo not shown) , thanks.
Response: 0.2 to 5 µM

Prompt: Need IC50 of Clc1cnc(NC2CCCNC2)nc1-c1c[nH]c2ccncc12 (stereo not shown) , thanks.
Response: 0.2 to 5 µM

Prompt: Need IC50 of CC(O)c1cnc(NC2CCCNC2)nc1-c1c[nH]c2ccccc12 (stereo not shown) [Compound 238] , thanks.
Response: ≥ 5 µM

Prompt: Need IC50 of CC1(O)CCN(C(=O)c2ccc3c(-c4nc(NC5CCCNC5)ncc4C(F)(F)F)c[nH]c3c2)C1 (stereo not shown) [Compound 221] , thanks.
Response: ≥ 5 µM

Prompt: Need IC50 of N#Cc1ccc2c(-c3nc(NC4CNCC(F)C4)ncc3C(F)(F)F)c[nH]c2c1 (stereo not shown) , thanks.
Response: ≥ 5 µM

Prompt: Need IC50 of CNC(=O)C1CNCC(Nc2ncc(C(F)(F)F)c(-c3c[nH]c4ccccc34)n2)C1 (stereo not shown) [Compound 253] , thanks.
Response: 0.2 to 5 µM

Prompt: Need IC50 of Fc1cc2[nH]cc(-c3nc(NC4CCCNC4)ncc3C(F)(F)F)c2cc1F (stereo not shown) , thanks.
Response: 0.02 to 0.2 µM

Prompt: Need IC50 of OC1CCC(c2cccc3c(-c4nc(NC5CCCNC5)ncc4C(F)(F)F)c[nH]c23)CC1 (stereo not shown) [Compound 185] , thanks.
Response: 0.2 to 5 µM

Prompt: Need IC50 of FC(F)n1cc(-c2ccc3c(-c4nc(NC5CCCNC5)ncc4C(F)(F)F)c[nH]c3c2)cn1 (stereo not shown) , thanks.
Response: 0.2 to 5 µM

====

# target-of-assay: CDK12 (aa686-1082)/Cyclin K complex (Homo sapiens)
# Construct: CDK12 (aa686-1082)/Cyclin K complex
# Sequence (Q9NYV4 686-1082): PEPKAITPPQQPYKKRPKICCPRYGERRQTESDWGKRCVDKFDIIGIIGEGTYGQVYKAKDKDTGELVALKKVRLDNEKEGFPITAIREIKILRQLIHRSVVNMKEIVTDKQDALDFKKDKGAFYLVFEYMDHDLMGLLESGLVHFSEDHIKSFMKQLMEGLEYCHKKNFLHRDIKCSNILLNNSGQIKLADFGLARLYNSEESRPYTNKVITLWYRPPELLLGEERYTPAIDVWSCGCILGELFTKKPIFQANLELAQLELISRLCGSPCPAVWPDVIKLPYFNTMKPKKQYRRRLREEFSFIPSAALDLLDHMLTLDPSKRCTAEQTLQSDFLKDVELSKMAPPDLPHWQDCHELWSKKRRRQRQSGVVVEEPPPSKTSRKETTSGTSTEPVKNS
# Sequence (O75909 whole entry partner, the tested form may be a part): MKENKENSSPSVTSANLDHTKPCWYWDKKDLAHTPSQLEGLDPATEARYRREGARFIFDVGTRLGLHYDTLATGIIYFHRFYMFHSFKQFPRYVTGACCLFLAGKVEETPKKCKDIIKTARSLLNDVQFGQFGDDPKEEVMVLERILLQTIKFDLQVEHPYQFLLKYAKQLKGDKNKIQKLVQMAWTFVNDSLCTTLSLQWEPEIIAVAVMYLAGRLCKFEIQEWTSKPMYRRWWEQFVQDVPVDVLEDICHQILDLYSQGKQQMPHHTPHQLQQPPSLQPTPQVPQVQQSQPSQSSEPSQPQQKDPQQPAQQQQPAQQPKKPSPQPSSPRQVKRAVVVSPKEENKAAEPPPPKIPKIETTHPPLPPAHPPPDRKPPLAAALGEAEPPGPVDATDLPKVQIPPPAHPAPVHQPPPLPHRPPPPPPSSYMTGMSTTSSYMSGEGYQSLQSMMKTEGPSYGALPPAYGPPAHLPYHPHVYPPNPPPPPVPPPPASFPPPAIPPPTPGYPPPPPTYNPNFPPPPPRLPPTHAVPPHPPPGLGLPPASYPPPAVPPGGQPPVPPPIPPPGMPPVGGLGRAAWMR
# assay-method-text: CDK12 kinase inhibition assay (Caliper/LabChip EZ Reader)
# test-context: CDK12 (aa686-1082)/Cyclin K 50 nM, ATP 2 mM, 3 hr at 27° C.
test-readout: IC50

c1ccc2c(-c3nc(NC4CCCNC4)ncc3C3CC3)c[nH]c2c1 (stereo not drawn) = ≥ 5 µM
N#CC1CCN(C(=O)c2ccc3c(-c4nc(NC5CCCNC5)ncc4C(F)(F)F)c[nH]c3c2)C1 (stereo not drawn) [Compound 292] = 0.2 to 5 µM
CCc1cnc(NC2CCCNC2)nc1-c1n[nH]c2ccc(C)cc12 (stereo not drawn) = 0.2 to 5 µM
NS(=O)(=O)c1ccc(-c2ccc3c(-c4nc(N[C@H]5CCCNC5)ncc4C(F)(F)F)c[nH]c3c2)cc1 = 0.2 to 5 µM
Cn1cc(-c2ccc3c(-c4nc(N[C@H]5CCCNC5)ncc4C(F)(F)F)c[nH]c3c2)c2cnc(C(F)(F)F)cc21 = 0.2 to 5 µM

Prompt: Need IC50 of Cn1cc(-c2ccc3c(-c4nc(NC5CCCNC5)ncc4C(F)(F)F)c[nH]c3c2)ccc1=O (stereo not drawn) , thanks.
Response: 0.2 to 5 µM

Prompt: Need IC50 of N#Cc1ccc2c(-c3nc(N[C@@H]4CCC5(CCC5)NC4)ncc3C(F)(F)F)c[nH]c2c1 , thanks.
Response: 0.2 to 5 µM

Prompt: Need IC50 of COCCN1CCCC(Nc2ncc(Cl)c(-c3c[nH]c4ccccc34)n2)C1 (stereo not drawn) , thanks.
Response: 0.2 to 5 µM
